# Organism: Rattus norvegicus
# ASSAY TEXT: Open TG-GATES - Regimen: Daily Repeat
# Assay type: toxicity, organism-based, Sprague-Dawley
# Design: regimen Daily Repeat, gender Male, age 6 weeks
# RUN CONDITIONS: in vivo, po, 300 mg/kg, […], tissue Plasma, route gavage, dose level Middle, time 7 day
The following compounds are shown together with reported TBIL values.
Hi! Could you send only the number? It should be in mg/dL, unit omitted.

Study these solved cases before continuing.
SMILES RECORD	MEAS VALUE
CN/C(=N/CCSCc1nc[nH]c1C)NC#N	0.1
O=C(OC[C@H]1O[C@@H](OC(=O)c2cc(O)c(O)c(OC(=O)c3cc(O)c(O)c(O)c3)c2)[C@H](OC(=O)c2cc(O)c(O)c(OC(=O)c3cc(O)c(O)c(O)c3)c2)[C@@H](OC(=O)c2cc(O)c(O)c(OC(=O)c3cc(O)c(O)c(O)c3)c2)[C@@H]1OC(=O)c1cc(O)c(O)c(OC(=O)c2cc(O)c(O)c(O)c2)c1)c1cc(O)c(O)c(OC(=O)c2cc(O)c(O)c(O)c2)c1	0.4
Cc1nnc2n1-c1ccc(Cl)cc1C(c1ccccc1Cl)=NC2	0.038
COC(=O)C1=C(C)NC(C)=C(C(=O)OC)C1c1ccccc1[N+](=O)[O-]	0.022

q: Consider the compound CNC(=C[N+](=O)[O-])NCCSCc1ccc(CN(C)C)o1 and give its measured TBIL.
a: 0.1

q: Please report the recorded TBIL for CCOc1ccc(NC(C)=O)cc1 .
a: 0.048
